Measured MIC of individual entries
# System: Escherichia coli
# method description: Antibacterial activity against gram-negative wild type Escherichia coli MG1655 by CLSI broth microdilution method
# Format: functional

As a guide, the following entries are already answered.
{"columns": ["sample smiles", "tested target", "MIC"],
 "data": [
  ["O=C1CCc2cc(-c3ccc(N4C[C@H](CO)OC4=O)cc3F)cc(O)c21", "Escherichia coli", "> 256 µg/mL"],
  ["O=C1O[C@@H](CO)CN1c1ccc(-c2ccc(N3C[C@@H](CO)OC3=O)nc2)c(F)c1", "Escherichia coli", "> 128 µg/mL"],
  ["N#Cc1ccc(-c2ccc(N3C[C@H](CO)OC3=O)nc2)cc1O", "Escherichia coli", "> 256 µg/mL"],
  ["N#Cc1ccc(-c2ccc(N3C[C@H](CN)OC3=O)cc2F)cc1O", "Escherichia coli", "> 256 µg/mL"],
  ["NCc1ccc(-c2ccc(N3C[C@H](Cn4nncc4CO)OC3=O)cc2F)cc1", "Escherichia coli", "> 256 µg/mL"],
  ["NC(/C=C/c1ccc(N2C[C@H](CO)OC2=O)cc1F)=N\\O", "Escherichia coli", "> 128 µg/mL"]
]}

Value wanted: MIC (Escherichia coli) of entry CC(=O)NC[C@H]1CN(c2ccc(-c3ccc(F)c(O)c3)c(F)c2)C(=O)O1
> 256 µg/mL

Then this molecule: NCc1ccc(-c2ccc(N3C[C@H](Cn4nncc4O)OC3=O)cc2F)cc1
> 64 µg/mL

Then this molecule: NCc1ccc(-c2ccc(N3C[C@H](CO)OC3=O)cc2O)cc1
> 256 µg/mL

Then this molecule: NCc1ccc(-c2ccc(N3C[C@H](Cn4nncc4C(=O)O)OC3=O)cc2F)cc1
> 128 µg/mL

---

# System: Escherichia coli
# method description: Permeability index, ratio of MIC for wild type Escherichia coli MG1655 to MIC for Escherichia coli MG1655 membrane permeabilized mutant in presence of polymyxinnonapeptide
# Assay type: functional
measurement label: Ratio

As a guide, the following entries are already answered.
{"columns": ["sample smiles", "measurement label", "result"],
 "data": [
  ["N/C(=N\\O)c1ccc(-c2ccc(N3C[C@H](CO)OC3=O)cc2)cc1", "Ratio", ">8"],
  ["CC(=O)NC[C@H]1CN(c2ccc(-c3ccnc(N)c3)c(F)c2)C(=O)O1", "Ratio", 4],
  ["NCc1ccc(-c2ccc(N3C[C@H](CNC(=O)C(F)F)OC3=O)cc2F)cc1", "Ratio", 4],
  ["O=C(NC[C@H]1CN(c2ccc(-c3ccc(F)c(O)c3)c(F)c2)C(=O)O1)C(F)F", "Ratio", ">4"]
]}

Value wanted: Ratio (Escherichia coli) of entry N/C(=N\O)c1ccc(-c2ccc(N3C[C@H](CO)OC3=O)cc2F)cn1
>16

Then this compound: CC(=O)NC[C@H]1CN(c2ccc(N3CCOCC3)c(F)c2)C(=O)O1
3.6

Then this compound: NCc1ccc(-c2ccc(N3C[C@H](Cn4cc(CO)nn4)OC3=O)cc2F)cc1
2

Then this compound: O=C1CCc2cc(-c3ccc(N4C[C@H](CO)OC4=O)cc3F)cc(O)c21
>32

Then this compound: N/C(=N\O)c1ccc(-c2ccc(N3C[C@H](CO)OC3=O)cc2F)cc1O
2

Then this compound: CC(=O)NC[C@H]1CN(c2ccc(-c3ccc(C#N)c(O)c3)c(F)c2)C(=O)O1
>8

Then this compound: NCc1ccc(-c2ccc(N3C[C@H](CNC(=O)C(F)(F)F)OC3=O)cc2F)cc1
6

Attribution: ChEMBL document CHEMBL4177666
